Kindly state Aβ42 fibril width for each of the entries shown.
# target.of.assay: Aβ42 + Cu(II) fibrils (Homo sapiens)
# Construct: Beta-amyloid protein, fragment 1-42; purchased Sigma-Aldrich
# Sequence (P05067 672-713 limits assumed): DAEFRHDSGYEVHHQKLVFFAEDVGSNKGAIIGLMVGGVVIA
# measurement.notes: TEM assay of Aβ42 fibrils in the presence of Cu(II)
# Assay type: biochemical
# condition.parameters: TEM, CAβ42 = CCu = CL = 50 µM, 48 h 37 °C, Aβ42 + Cu(II) 6.8 ± 0.3 nm
Give bare numbers, in nm.

Examples from the recorded data:
item_smiles=CCN(C)C(=O)Oc1cccc(CCNC(=O)c2ccc3nc(-c4ccccc4O)[nH]c3c2)c1 readout_unit=nm endpoint_value=4.6
item_smiles=CCN(C)C(=O)Oc1cccc(CNC(=O)c2ccc3nc(-c4ccccc4O)[nH]c3c2)c1 readout_unit=nm endpoint_value=4.8
item_smiles=CCN(C)C(=O)Oc1cccc(NC(=O)c2ccc3nc(-c4ccccc4O)[nH]c3c2)c1 readout_unit=nm endpoint_value=4.7
item_smiles=CCN(C)C(=O)Oc1cccc(CNC(=O)c2cccc3[nH]c(-c4ccccc4O)nc23)c1 readout_unit=nm endpoint_value=4.1

Below: the item to evaluate.
Exam item: Under Aβ42 + Cu(II) fibrils (Homo sapiens): report Aβ42 fibril width of CCN(C)C(=O)Oc1ccc(CCCNC(=O)c2cccc3[nH]c(-c4ccccc4O)nc23)cc1 .
Marked response: 3.9
